Tested on: Ovis aries
protocol_summary: Percent reduction in Trichostrongylus eggs per gram, after treatment with 100 mg/kg dose of compound perorally in sheep
Format: functional, Egg
setup_conditions: route oral
Assign Reduction to each entry below.
Respond with the bare value in %.

Tell us which Reduction value is on record for CSc1ccc(/C(Cl)=N/Nc2ccccc2)cc1
98

Tell us which Reduction value is on record for O=[N+]([O-])c1ccc(N/N=C(\Cl)c2ccccc2)cc1
57

Tell us which Reduction value is on record for CCCCOc1ccc(/C(Cl)=N/Nc2ccccc2)cc1
100

Tell us which Reduction value is on record for Cl/C(=N\Nc1ccc(Cl)c(Cl)c1Cl)c1ccccc1
0

Tell us which Reduction value is on record for Cl/C(=N\Nc1cc(Cl)cc(Cl)c1)c1ccccc1
100

Tell us which Reduction value is on record for Cc1ccccc1/C(Cl)=N/Nc1c(Cl)cc(Cl)cc1Cl
14
